# SUBJECT_OF_TEST: 6×histidine-tagged BIR2 (amino acids 124–240) domain of the XIAP protein (UniProt P98170)
# Sequence (P98170 124-240): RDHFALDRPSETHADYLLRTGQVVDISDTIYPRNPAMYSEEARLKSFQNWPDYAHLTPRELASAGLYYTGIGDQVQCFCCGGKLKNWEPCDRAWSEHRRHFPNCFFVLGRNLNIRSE
# METHOD_DESCRIPTION: AlphaScreen or HTRF; TR-FRET competition: 10 nM 6xHis BIR2 or BIR3 domain with 20 nM …-(epsilon-biotin)-OH; europium streptavidin (1.5 nM) and allophycocyanin anti-histidine antibody (15 nM); 50 mM Tris-HCl pH 7.5, 100 mM NaCl, 1 mM DTT, 0.1 mg/ml BSA; 45 min at 310 K, read 1 h later at room temperature; ten concentrations; Ki from IC50 by Cheng-Prusoff
pKi: −log10 of the molar value.

BINDER: SMRV
pKi: 4.91
